assay: Pharmacokinetics and brain distribution after single intraperitoneal dose in male C57BL/6 mice; conditions: male, C57BL/6, mouse, in vivo, ip, 10 mg/kg, Tmax, plasma; i.p. 10 mg/kg; male C57BL/6 mice
measured-parameter: Tmax

Ask: Please report the recorded Tmax for COCCCNC1c2ccccc2N(C)S(=O)(=O)c2cc(Cl)ccc21 (stereo not shown) .
Reply: 15 min

----------
assay: Pharmacokinetics and brain distribution after single intraperitoneal dose in male C57BL/6 mice; settings: male, C57BL/6, mouse, in vivo, ip, 10 mg/kg, MRTlast, plasma; i.p. 10 mg/kg; male C57BL/6 mice
measured-parameter: MRT last (h)
Answers are plain numbers, in h.

Ask: Please report the recorded MRT last for COCCCNC1c2ccccc2N(C)S(=O)(=O)c2cc(Cl)ccc21 (stereo not shown) [compound 23] .
Reply: 2.29

----------
experiment: Pharmacokinetics and brain distribution after single intraperitoneal dose in male C57BL/6 mice; details: male, C57BL/6, mouse, in vivo, ip, 10 mg/kg, MRTlast, brain; i.p. 10 mg/kg; male C57BL/6 mice
measured-parameter: MRT last (h)
Numbers only, in h.

Ask: Please report the recorded MRT last for COCCCNC1c2ccccc2N(C)S(=O)(=O)c2cc(Cl)ccc21 (stereo not shown) .
Reply: 1.27

----------
molecular target: Human MOR (Homo sapiens (Human), UniProt P35372); assay: BRET G protein activation assay, human MOR in transfected HEK-293T cells; format: cell-based; settings: BRET G protein activation, HEK-293T; mean ± SEM; read-out: EC50 Human MOR
Sequence (P35372 whole entry): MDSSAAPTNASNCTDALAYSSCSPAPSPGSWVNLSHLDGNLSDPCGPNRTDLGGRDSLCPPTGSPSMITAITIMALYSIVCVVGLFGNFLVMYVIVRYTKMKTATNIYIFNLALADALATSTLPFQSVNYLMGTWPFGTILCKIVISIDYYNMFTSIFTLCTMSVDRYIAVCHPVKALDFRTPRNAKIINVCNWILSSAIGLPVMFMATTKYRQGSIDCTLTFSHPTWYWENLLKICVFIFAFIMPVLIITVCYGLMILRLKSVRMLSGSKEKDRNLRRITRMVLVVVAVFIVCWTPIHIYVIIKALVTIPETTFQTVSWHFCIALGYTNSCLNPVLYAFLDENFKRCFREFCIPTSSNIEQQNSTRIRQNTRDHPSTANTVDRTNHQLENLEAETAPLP
measured-parameter: EC50

Some molecules with recorded EC50:
CCOC(=O)CCCCNC1c2ccccc2N(C)S(=O)(=O)c2cc(Cl)ccc21 (stereo not shown) [compound 17] :: < 10 µM
CCSc1ccc2c(c1)S(=O)(=O)N(C)c1ccccc1C2NCCCOC (stereo not shown) [compound 64] :: < 10 µM
COCCNC1c2ccccc2N(C)S(=O)(=O)c2cc(Cl)ccc21 (stereo not shown) [compound 42] :: < 10 µM
CN1c2ccccc2C(NCCCCC(=O)O)c2ccc(Cl)cc2S1(=O)=O (stereo not shown) [compound 18] :: < 10 µM
COCCCNC1c2ccccc2N(C)S(=O)(=O)c2ccc(Cl)cc21 (stereo not shown) [compound 60] :: < 20 µM
CCCCCNC1c2ccccc2N(C)S(=O)(=O)c2cc(Cl)ccc21 (stereo not shown) [compound 19] :: < 10 µM
CCOC(CCCNC1c2ccccc2N(C)S(=O)(=O)c2cc(Cl)ccc21)OCC (stereo not shown) [compound 24] :: < 10 µM
CCCNC1c2ccccc2N(C)S(=O)(=O)c2cc(Cl)ccc21 (stereo not shown) [compound 21] :: < 10 µM
COCCCNC1c2ccccc2N(C)S(=O)(=O)c2cc(SC)ccc21 (stereo not shown) [compound 44] :: < 10 µM
CSCCCNC1c2ccccc2N(C)S(=O)(=O)c2cc(Cl)ccc21 (stereo not shown) [compound 33] :: < 10 µM

Please look at the items below and tell me EC50 for each one, in order.
1. COC(C)CCNC1c2ccccc2N(C)S(=O)(=O)c2cc(Cl)ccc21 (stereo not shown) [compound 67]
2. COCCCNC1c2ccc(Cl)cc2N(C)S(=O)(=O)c2ccccc21 (stereo not shown) [compound 69]
3. CN1c2ccccc2C(NCCCCCCC2=NCCO2)c2ccc(Cl)cc2S1(=O)=O (stereo not shown) [compound 58]

Reply:
< 10 µM
< 20 µM
< 10 µM

Please look at the items below and tell me EC50 for each one, in order.
1. COCCCNC1c2ccccc2N(C)S(=O)(=O)c2cc(-c3ccccc3)ccc21 (stereo not shown) [compound 56]
2. CC(C)NC1c2ccccc2N(C)S(=O)(=O)c2cc(Cl)ccc21 (stereo not shown) [compound 22]
3. CCOCCCNC1c2ccc(Cl)cc2S(=O)(=O)N(C)c2ccsc21 (stereo not shown) [compound 78]
4. COCCCNC1c2ccccc2N(C)S(=O)(=O)c2ccccc21 (stereo not shown) [compound 10]
5. COCCCNC1c2ccc(Br)cc2S(=O)(=O)N(C)c2ccsc21 (stereo not shown) [compound 72]
6. CNC1c2ccccc2N(C)S(=O)(=O)c2cc(Cl)ccc21 (stereo not shown) [compound 20]

Reply:
1: < 10 µM; 2: < 10 µM; 3: < 10 µM; 4: < 10 µM; 5: < 10 µM; 6: < 10 µM

Please look at the items below and tell me EC50 for each one, in order.
1. CCCCCNC1c2ccccc2N(C)S(=O)(=O)c2ccccc21 (stereo not shown) [compound 8]
2. COCCCNC1c2ccccc2S(=O)(=O)N(C)c2c(OC)cccc21 (stereo not shown) [compound 50]
3. COCCCNC1c2ccccc2N(C)S(=O)(=O)c2cc(OCc3ccccc3)ccc21 (stereo not shown) [compound 75]
4. COCCCNC1c2ccc(Cl)cc2S(=O)(=O)N(C)c2ccsc21 (stereo not shown) [compound 77]
5. COCCCNC1c2ccccc2N(C)S(=O)(=O)c2cc(OC)ccc21 (stereo not shown) [compound 27]

Reply:
< 10 µM
< 20 µM
> 20 µM
< 10 µM
< 10 µM
